tested_target: T1, IL10Rα/IL2Rγ receptor (human) (UniProt Q13651)
T1 sequence (looked up) 1: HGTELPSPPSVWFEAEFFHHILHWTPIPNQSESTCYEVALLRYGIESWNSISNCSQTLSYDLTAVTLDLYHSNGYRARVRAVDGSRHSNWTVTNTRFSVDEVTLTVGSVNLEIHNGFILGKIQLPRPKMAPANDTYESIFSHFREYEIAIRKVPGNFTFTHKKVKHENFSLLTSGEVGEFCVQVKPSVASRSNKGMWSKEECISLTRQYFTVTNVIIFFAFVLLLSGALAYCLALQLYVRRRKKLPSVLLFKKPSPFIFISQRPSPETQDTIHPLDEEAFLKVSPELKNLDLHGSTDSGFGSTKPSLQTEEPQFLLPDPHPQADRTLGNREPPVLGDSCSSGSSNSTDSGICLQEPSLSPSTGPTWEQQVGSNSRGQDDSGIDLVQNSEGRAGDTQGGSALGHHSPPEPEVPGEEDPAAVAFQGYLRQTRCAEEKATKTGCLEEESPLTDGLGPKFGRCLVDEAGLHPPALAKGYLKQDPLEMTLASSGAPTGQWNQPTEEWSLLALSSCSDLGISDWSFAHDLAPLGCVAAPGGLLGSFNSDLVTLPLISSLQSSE
T1 sequence (looked up) 2: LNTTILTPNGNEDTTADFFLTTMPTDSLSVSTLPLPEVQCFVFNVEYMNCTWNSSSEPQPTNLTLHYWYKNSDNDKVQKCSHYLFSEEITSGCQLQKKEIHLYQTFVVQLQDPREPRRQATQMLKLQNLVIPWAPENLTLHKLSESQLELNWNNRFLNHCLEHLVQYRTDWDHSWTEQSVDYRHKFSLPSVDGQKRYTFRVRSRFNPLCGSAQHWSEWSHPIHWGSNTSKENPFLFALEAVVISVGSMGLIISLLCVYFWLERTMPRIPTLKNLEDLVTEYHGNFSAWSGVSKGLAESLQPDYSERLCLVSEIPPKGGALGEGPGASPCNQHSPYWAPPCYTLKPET
measurement_protocol: cell-based or functional assay
quantity_name: IFNγ secretion, CD8 T cells, at 10 µM (pg/mL)

binder	quantity_name	measured_result
hIL10Ra_VHH14 - hIL2Rg_VHH19, linker GS, tag his (bispecific antibody, not shown: small tags and cut ends) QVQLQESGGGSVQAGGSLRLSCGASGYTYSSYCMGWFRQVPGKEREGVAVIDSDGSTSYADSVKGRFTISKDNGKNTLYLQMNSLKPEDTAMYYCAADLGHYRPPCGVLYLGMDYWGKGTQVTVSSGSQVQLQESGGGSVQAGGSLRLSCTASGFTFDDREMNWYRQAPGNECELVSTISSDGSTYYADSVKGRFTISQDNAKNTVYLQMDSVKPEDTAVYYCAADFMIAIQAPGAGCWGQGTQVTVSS	IFNγ secretion, CD8 T cells, at 10 µM	143000
